Tested on: WHIM2 (cells of a triple-negative basal-like breast cancer xenograft)
ASSAY PROCEDURE: cell viability (% of vehicle); higher = less cytotoxic;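 further: PDX cells carrying CMV promoter-driven luciferase, viability read as total photon flux per second by IVIS imaging following D-luciferin, vehicle control 0.1% DMSO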
EXPERIMENTAL CONTEXT: 10 µM; 72 h
QUANTITY: cell viability
Form field (numeric): enter value without unit.

Sample Cc1nc(=O)c2cc(CN(C)c3ccc(C(=O)NC(CCC(=O)O)C(=O)O)s3)ccc2[nH]1 (stereo not drawn) ; cell viability observed: 116

Sample `O=C(O)/C=C/c1ccc(O)c(O)c1` ; cell viability observed: 86.5

Sample NC(=O)C(CCC(F)(F)F)N(Cc1ccc(-c2ncon2)cc1F)S(=O)(=O)c1ccc(Cl)cc1 (stereo not drawn) ; cell viability observed: 108

Sample Cl.Cl.OCCOCCN1CCN(C(c2ccccc2)c2ccc(Cl)cc2)CC1 (stereo not drawn) [Hydroxyzine 2HCl] ; cell viability observed: 97.2

Sample O=C(O)[C@H](O)[C@@H](O)C(=O)O.c1cnc2cc3c(cc2n1)C1CNC[C@@H]3C1 [Varenicline Tartrate] ; cell viability observed: 106

Sample `C[C@@H]1C[C@H]2[C@H]3CCC4=CC(=O)C=C[C@]4(C)[C@@]3(F)[C@@H](O)C[C@]2(C)[C@@]1(O)C(=O)CO` ; cell viability observed: 83.4

Sample `Nc1ccc(O)c(C(=O)O)c1` ; cell viability observed: 92

Sample CC(C)(C)NCC(O)c1cc(O)cc(O)c1.CC(C)(C)NCC(O)c1cc(O)cc(O)c1.O=S(=O)(O)O (stereo not drawn) [Terbutaline Sulfate] ; cell viability observed: 106

----------
System: UCD52 (cells of a triple-negative basal-like breast cancer xenograft)
ASSAY PROCEDURE: cell viability (% of vehicle); higher = less cytotoxic
EXPERIMENTAL CONTEXT: 10 µM; 72 h
QUANTITY: cell viability
Form field (numeric): enter value without unit.

Sample CC12C=CC(=O)C=C1CCC1C2C(=O)CC2(C)C1CCC2(O)C(=O)CO (stereo not given) ; cell viability observed: 103

Sample Cc1c(OCC(F)(F)F)ccnc1CS(=O)c1nc2ccccc2[nH]1 (stereo not given) ; cell viability observed: 143

Sample Nc1ccc(C(=O)[O-])c(O)c1.O.O.[Na+] [Sodium 4-Aminosalicylate] ; cell viability observed: 77.7

Sample COc1nc(N)nc2c1ncn2C1OC(CO)C(O)C1O (stereo not given) ; cell viability observed: 111

Sample Cc1cn(C2CC(N=[N+]=[N-])C(CO)O2)c(=O)[nH]c1=O (stereo not given) ; cell viability observed: 123

----------
Test system: WHIM2
ASSAY PROCEDURE: cell viability (% of vehicle); higher = less cytotoxic
EXPERIMENTAL CONTEXT: 10 µM; 72 h
QUANTITY: cell viability
Form field (numeric): enter value without unit.

Sample [O-][n+]1cccc(CO)c1 [Mepiroxol] ; cell viability observed: 95.7

Sample CCC(CO)Nc1nc(NCc2ccccc2)c2ncn(C(C)C)c2n1 (configuration not stated) [Roscovitine (Seliciclib,CYC202)] ; cell viability observed: 90.4

Sample CC(=O)C1(O)Cc2c(O)c3c(c(O)c2C(OC2CC(N)C(O)C(C)O2)C1)C(=O)c1ccccc1C3=O.Cl (configuration not stated) [Idarubicin HCl] ; cell viability observed: 29.3

Sample Nc1cccc2c1CN(C1CCC(=O)NC1=O)C2=O (configuration not stated) [Lenalidomide (CC-5013)] ; cell viability observed: 78.6

Sample COC(=O)Nc1nc2ccc(S(=O)c3ccccc3)cc2[nH]1 (configuration not stated) ; cell viability observed: 87

Sample COS(=O)(=O)[O-].C[N+]1(C)CCC(=C(c2ccccc2)c2ccccc2)CC1 [Diphemanil Methylsulfate] ; cell viability observed: 96.7

Sample COc1cc(Nc2ncc(F)c(Nc3ccc4c(n3)N(COP(=O)([O-])[O-])C(=O)C(C)(C)O4)n2)cc(OC)c1OC.[Na+].[Na+] [R788 disodium] ; cell viability observed: 79.4

Sample COc1cc2nc(N3CCN(C(=O)c4ccco4)CC3)nc(N)c2cc1OC.Cl [Prazosin HCl] ; cell viability observed: 52.5

Sample CN(C)CCOC(C)(c1ccccc1)c1ccccn1.O=C(O)CCC(=O)O (configuration not stated) [Doxylamine Succinate] ; cell viability observed: 97.4

Sample CC(=O)OC1CCC2(C)C(=CCC3C2CCC2(C)C(c4cccnc4)=CCC32)C1 (configuration not stated) [Abiraterone acetate] ; cell viability observed: 95.5

Sample `CCc1nc(N)nc(N)c1-c1ccc(Cl)cc1` ; cell viability observed: 119

Sample `CC(=O)Oc1ccccc1C(=O)O` ; cell viability observed: 101
